The values you see were collected from patent US8268814B2.

Target: human B1R receptor (hB1R) (Homo sapiens, UniProt P46663)
Construct: expressed in transfected cells; host or cells: CHO K1 cells (Chinese hamster ovary), stably transfected
Sequence (P46663 whole entry): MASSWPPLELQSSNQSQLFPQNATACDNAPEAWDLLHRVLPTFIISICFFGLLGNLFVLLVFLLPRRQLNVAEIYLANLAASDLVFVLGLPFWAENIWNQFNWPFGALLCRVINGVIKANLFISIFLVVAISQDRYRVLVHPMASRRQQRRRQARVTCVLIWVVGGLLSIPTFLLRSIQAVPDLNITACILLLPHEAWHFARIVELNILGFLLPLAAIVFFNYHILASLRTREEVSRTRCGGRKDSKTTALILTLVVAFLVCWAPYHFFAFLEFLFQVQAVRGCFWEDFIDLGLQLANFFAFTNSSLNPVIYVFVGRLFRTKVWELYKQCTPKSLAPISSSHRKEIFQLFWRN
Test: Functional FLIPR Ca2+ assay on the bradykinin 1 receptor, human (hB1R CHO K1 cells)
Type: cell-based
Conditions: test substance 10 μM; CHO K1 cells transfected with human B1R gene; agonist Lys-Des-Arg9-bradykinin at EC80; % inhibition compared with maximum achievable inhibition; read-out: B1R antagonism, human (10 μM] % inhibition
endpoint label: inhibition at 10 µM (%)

Cc1cccc(Cl)c1S(=O)(=O)N(CCOCC(=O)N1CCc2sc(CN3CCC3)cc2C1)C1CC1 [Example 56]: 100
COc1cc(C)c(S(=O)(=O)N2c3ccccc3CC[C@H]2COCC(=O)N2CCc3sc(CN4CCCCC4)cc3C2)c(C)c1 [Example 61]: 100
COc1cc(C)c(S(=O)(=O)N2CCCC[C@H]2COCC(=O)N2CCc3nc(CN4CCCCC4)sc3C2)c(C)c1 [Example 58]: 100
O=C(CC1CCCCN1S(=O)(=O)c1cccc(C(F)(F)F)c1)N1CCc2onc(CN3CCCCC3)c2C1 (stereo not drawn) [Example 05]: 48

[1] COc1cc(C)c(S(=O)(=O)N(C)CCOCC(=O)N2CCc3onc(CN4CCCCC4)c3C2)c(C)c1 [Example 13]
[2] COc1cc(C)c(S(=O)(=O)N(C)CCOCC(=O)N2CCc3nc(Cc4ccncc4)sc3C2)c(C)c1 [Example 39]
[Q] Could you tell me which of these two has the smaller inhibition at 10 µM figure? First: 1 Second: 2 Please identify the chosen entry by its label.
[A] 1
